Molecular target: Cytochrome P450 1A2 (Homo sapiens)
Sequence (P05177 whole entry): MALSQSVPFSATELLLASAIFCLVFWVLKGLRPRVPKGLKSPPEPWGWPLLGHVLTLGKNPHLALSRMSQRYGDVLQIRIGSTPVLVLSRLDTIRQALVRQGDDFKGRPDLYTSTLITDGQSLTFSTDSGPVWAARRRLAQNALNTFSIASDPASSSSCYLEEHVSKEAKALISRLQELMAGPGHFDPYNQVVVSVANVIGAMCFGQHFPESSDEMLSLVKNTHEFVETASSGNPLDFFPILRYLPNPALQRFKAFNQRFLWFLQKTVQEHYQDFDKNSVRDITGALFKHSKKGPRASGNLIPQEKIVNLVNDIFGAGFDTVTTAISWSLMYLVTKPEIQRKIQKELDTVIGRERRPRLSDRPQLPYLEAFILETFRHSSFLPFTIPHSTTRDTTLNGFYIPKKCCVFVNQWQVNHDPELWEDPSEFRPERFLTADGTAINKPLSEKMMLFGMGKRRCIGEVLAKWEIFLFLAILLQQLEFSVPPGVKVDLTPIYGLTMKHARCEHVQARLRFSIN
Test: CYP1A2 Inhibition Assay: CYP1A2 Inhibition in Human Liver Microsomes. Pooled human liver microsomes were incubated with individual CYP, CYP1A2, isozyme-specific marker substrate (Phenacetin) in the presence of test compound at various concentrations (0.05, 0.15, 0.5, 1.5, 5, 15, 50 uM). The specific marker metabolites are measured with LC/MS/MS. The remaining enzymatic activities and inhibitory potency IC50 are determined. Procedure: Microsomes are removed out of the −80° C. freezer to thaw on ice and 20 μL of the substrates solution added to the corresponding wells. Then 20 μL PB was added to blank wells and 2 μL of the test compounds and positive control working solution added to the corresponding wells. 2 μL of solvent was added to No Inhibitor wells and Blank wells. Then 158 μL of the HLM working solution was added to all wells of the incubation plate. The plate was pre-warmed for about 10 min using a 37° C. water bath. Then 20 μL of the NADPH cofactor solution was added to all incubation wells, mixed and incubated for 10 minutes at 37° C. water bath. The reaction is terminated by adding 400 μL cold stop solution (200 ng/mL Tolbutamide and 200 ng/mL Labetalol in ACN). The samples were centrifuged at 4000 rpm for 20 minutes to precipitate protein. Finally 200 μL of the supernatant was transferred to 100 μL HPLC water, shaken for 10 min and analyzed by LC/MS/MS.
RESULT_TYPE: IC50

Q: What value of IC50 has been reported for the following compound? FC(F)(F)Oc1ccc(-c2ccc3nnc(C(F)(F)Cl)n3n2)cc1
A: < 1 µM
